Assay: in vitro
Type: cell-based, human
Details: human, differentiated hl-60 cells, 300 μmol/L, about 24 hours, PMA-differentiated HL-60 cells, LDH; no-treatment 0%, cell lysis buffer 100%; read-out: cytotoxicity (%) Evaluation compound results
Listing of entries alongside the reported cytotoxicity at 24 h, 300 µM.
measured parameter: cytotoxicity at 24 h, 300 µM (%)

entry smiles | meas value
COCCNP(=O)([O-])OC[N+]1(CCCCOc2ccc3ccc(=O)[nH]c3c2)CCN(c2cccc3sccc23)CC1 | -10
CCOC(=O)[C@@H](C)OP(=O)([O-])OC[N+]1(CCCCOc2ccc3ccc(=O)[nH]c3c2)CCN(c2cccc3sccc23)CC1 | 3
CC1(C)O[C@H]2[C@@H](O1)[C@@H](COP(=O)([O-])OC[N+]1(CCCCOc3ccc4ccc(=O)[nH]c4c3)CCN(c3cccc4sccc34)CC1)O[C@@H]1OC(C)(C)O[C@@H]12 | -3
CCOC(=O)CNP(=O)([O-])OC[N+]1(CCCCOc2ccc3ccc(=O)[nH]c3c2)CCN(c2cccc3sccc23)CC1 | 4
CC(C)(C)[Si](C)(C)OCCCCOP(=O)([O-])OC[N+]1(CCCCOc2ccc3ccc(=O)[nH]c3c2)CCN(c2cccc3sccc23)CC1 | 16
COC(=O)[C@H](COP(=O)([O-])OC[N+]1(CCCCOc2ccc3ccc(=O)[nH]c3c2)CCN(c2cccc3sccc23)CC1)NC(=O)OC(C)(C)C | -5

====

Experiment: Study for confirmation of conversion to brexpiprazole in a buffer (stability of the evaluation compounds)
Type: physicochemical
Settings: in buffer; decrease in 60-minute vs 0-minute reaction sample; average of duplicate
Classification field: label 1 = Concentration of evaluation compound decreased at or over 0 nM; label 0 = Concentration of evaluation compound decreased under 0 nM.

compound | cat
CC1(C)OCC(NC(=O)CCCC(=O)OCOP(=O)([O-])OC[N+]2(CCCCOc3ccc4ccc(=O)[nH]c4c3)CCN(c3cccc4sccc34)CC2)CO1 [EX 74] | label 1
O=c1ccc2ccc(OCCCC[N+]3(COP(=O)([O-])OCCN4CCC(F)(F)CC4)CCN(c4cccc5sccc45)CC3)cc2[nH]1 [EX 119] | label 1
CC(O)CCOP(=O)([O-])OC[N+]1(CCCCOc2ccc3ccc(=O)[nH]c3c2)CCN(c2cccc3sccc23)CC1 (centres unmarked) [EX 40] | label 1
COCCCCOC(=O)OCOP(=O)([O-])OC[N+]1(CCCCOc2ccc3ccc(=O)[nH]c3c2)CCN(c2cccc3sccc23)CC1 [EX 36] | label 0
CC(C)COP(=O)([O-])OC[N+]1(CCCCOc2ccc3ccc(=O)[nH]c3c2)CCN(c2cccc3sccc23)CC1 [EX 90] | label 0
CC(C)(C)OC(=O)CCCC(=O)OCOP(=O)([O-])OC[N+]1(CCCCOc2ccc3ccc(=O)[nH]c3c2)CCN(c2cccc3sccc23)CC1 [EX 69] | label 0
CCCCCCCC(=O)OC(C)OP(=O)([O-])OC[N+]1(CCCCOc2ccc3ccc(=O)[nH]c3c2)CCN(c2cccc3sccc23)CC1 (centres unmarked) [EX 26] | label 1
O=c1ccc2ccc(OCCCC[N+]3(COP(=O)([O-])OCC#CCCl)CCN(c4cccc5sccc45)CC3)cc2[nH]1 [EX 63] | label 1
CCC(=O)OCOP(=O)([O-])OC[N+]1(CCCCOc2ccc3ccc(=O)[nH]c3c2)CCN(c2cccc3sccc23)CC1 [EX 120] | label 1
CCC(CC)COC(=O)[C@@H](C)OP(=O)([O-])OC[N+]1(CCCCOc2ccc3ccc(=O)[nH]c3c2)CCN(c2cccc3sccc23)CC1 [EX 108] | label 1
COCCOCCOP(=O)([O-])OC[N+]1(CCCCOc2ccc3ccc(=O)[nH]c3c2)CCN(c2cccc3sccc23)CC1 [EX 7] | label 0
CCCCOP(=O)([O-])OC[N+]1(CCCCOc2ccc3ccc(=O)[nH]c3c2)CCN(c2cccc3sccc23)CC1 [EX 89] | label 0
CC1(C)OCC(COP(=O)([O-])OC[N+]2(CCCCOc3ccc4ccc(=O)[nH]c4c3)CCN(c3cccc4sccc34)CC2)CO1 [EX 55] | label 1

====

Assay: Study for confirmation of conversion to brexpiprazole in a buffer (stability of the evaluation compounds)
Type: physicochemical
Details: in buffer; decrease in 60-minute vs 0-minute reaction sample; average of duplicate
Rule: Concentration of evaluation compound decreased below 70 nM gives true, anything at or above gives false.

entry smiles | cat
C[C@@H]1CN(CCOP(=O)([O-])OC[N+]2(CCCCOc3ccc4ccc(=O)[nH]c4c3)CCN(c3cccc4sccc34)CC2)C[C@H](C)O1 | false
CCOP(=O)([O-])OC[N+]1(CCCCOc2ccc3ccc(=O)[nH]c3c2)CCN(c2cccc3sccc23)CC1 | true
CC(C)(C)C(=O)OP(=O)([O-])OC[N+]1(CCCCOc2ccc3ccc(=O)[nH]c3c2)CCN(c2cccc3sccc23)CC1 | false
O=C(OCCCCCCOP(=O)([O-])OC[N+]1(CCCCOc2ccc3ccc(=O)[nH]c3c2)CCN(c2cccc3sccc23)CC1)c1ccc([N+](=O)[O-])cc1 | true
COCC(COC)OP(=O)([O-])OC[N+]1(CCCCOc2ccc3ccc(=O)[nH]c3c2)CCN(c2cccc3sccc23)CC1 | true
CCCCOCCOCCOCCOC(=O)OCOP(=O)([O-])OC[N+]1(CCCCOc2ccc3ccc(=O)[nH]c3c2)CCN(c2cccc3sccc23)CC1 | false
CC(=O)Oc1ccccc1C(=O)OCOP(=O)([O-])OC[N+]1(CCCCOc2ccc3ccc(=O)[nH]c3c2)CCN(c2cccc3sccc23)CC1 | false

====

Assay: Study for confirmation of conversion to brexpiprazole in a buffer (stability of the evaluation compounds)
Type: physicochemical
Settings: in buffer; decrease in 60-minute vs 0-minute reaction sample; average of duplicate
Listing of entries alongside the reported Concentration of evaluation compound decreased.
measured parameter: Concentration of evaluation compound decreased (nM)

molecule | unit annotation | meas value
CCOC(=O)C(CC)OP(=O)([O-])OC[N+]1(CCCCOc2ccc3ccc(=O)[nH]c3c2)CCN(c2cccc3sccc23)CC1 (stereo not drawn) [EX 110] | nM | 70
C[C@H](NP(=O)([O-])OC[N+]1(CCCCOc2ccc3ccc(=O)[nH]c3c2)CCN(c2cccc3sccc23)CC1)C(N)=O [EX 158] | nM | 70
CCOCCOCCOC(=O)OCOP(=O)([O-])OC[N+]1(CCCCOc2ccc3ccc(=O)[nH]c3c2)CCN(c2cccc3sccc23)CC1 [EX 134] | nM | 70

====

Listing of entries alongside the reported Concentration of evaluation compound decreased.
Assay: Study for confirmation of conversion to brexpiprazole in a buffer (stability of the evaluation compounds)
Format: physicochemical
Conditions: in buffer; decrease in 60-minute vs 0-minute reaction sample; average of duplicate
measured parameter: Concentration of evaluation compound decreased (nM)

molecule | unit annotation | meas value
CCCCCC(=O)OC[N+]1(CCCCOc2ccc3ccc(=O)[nH]c3c2)CCN(c2cccc3sccc23)CC1.[I-] [REX 6, reference compound] | nM | 220
CC1(C)O[C@H]2[C@@H](O1)[C@@H](COP(=O)([O-])OC[N+]1(CCCCOc3ccc4ccc(=O)[nH]c4c3)CCN(c3cccc4sccc34)CC1)O[C@@H]1OC(C)(C)O[C@@H]12 | nM | 50
CC(C)(C)OC(=O)CNP(=O)([O-])OC[N+]1(CCCCOc2ccc3ccc(=O)[nH]c3c2)CCN(c2cccc3sccc23)CC1 | nM | 160
O=C(O)CCCCCOC(=O)OCOP(=O)([O-])OC[N+]1(CCCCOc2ccc3ccc(=O)[nH]c3c2)CCN(c2cccc3sccc23)CC1 | nM | 30
COc1ccc(COC(=O)CC(C)(C)CC(=O)OCOP(=O)([O-])OC[N+]2(CCCCOc3ccc4ccc(=O)[nH]c4c3)CCN(c3cccc4sccc34)CC2)cc1 | nM | 150
CCC(C)(C)C(=O)OCOP(=O)([O-])OC[N+]1(CCCCOc2ccc3ccc(=O)[nH]c3c2)CCN(c2cccc3sccc23)CC1 | nM | 50
COCC1CCC(COP(=O)([O-])OC[N+]2(CCCCOc3ccc4ccc(=O)[nH]c4c3)CCN(c3cccc4sccc34)CC2)CC1 (stereo not drawn) | nM | 140
CCCCOCCOCCOC(=O)OCOP(=O)([O-])OC[N+]1(CCCCOc2ccc3ccc(=O)[nH]c3c2)CCN(c2cccc3sccc23)CC1 | nM | 70
CCOC(=O)CNP(=O)([O-])OC[N+]1(CCCCOc2ccc3ccc(=O)[nH]c3c2)CCN(c2cccc3sccc23)CC1 | nM | 20
CCCCOCCOP(=O)([O-])OC[N+]1(CCCCOc2ccc3ccc(=O)[nH]c3c2)CCN(c2cccc3sccc23)CC1 | nM | 30
CC(C)OCCOC(=O)OCOP(=O)([O-])OC[N+]1(CCCCOc2ccc3ccc(=O)[nH]c3c2)CCN(c2cccc3sccc23)CC1 | nM | 140
O=C(OCCCN1CCOCC1)OCOP(=O)([O-])OC[N+]1(CCCCOc2ccc3ccc(=O)[nH]c3c2)CCN(c2cccc3sccc23)CC1 | nM | 110
O=c1ccc2ccc(OCCCC[N+]3(COP(=O)([O-])OC/C=C\CO)CCN(c4cccc5sccc45)CC3)cc2[nH]1 | nM | 120
O=c1ccc2ccc(OCCCC[N+]3(COP(=O)([O-])OCC(F)F)CCN(c4cccc5sccc45)CC3)cc2[nH]1 | nM | 50
CC(C)(CC(=O)O)CC(=O)OCOP(=O)([O-])OC[N+]1(CCCCOc2ccc3ccc(=O)[nH]c3c2)CCN(c2cccc3sccc23)CC1 | nM | 100
O=C(OCCCOC1CCCCO1)OCOP(=O)([O-])OC[N+]1(CCCCOc2ccc3ccc(=O)[nH]c3c2)CCN(c2cccc3sccc23)CC1 (stereo not drawn) | nM | -20
CC(C)OC(=O)[C@@H](C)OP(=O)([O-])OC[N+]1(CCCCOc2ccc3ccc(=O)[nH]c3c2)CCN(c2cccc3sccc23)CC1 | nM | 50
O=C(OCOP(=O)([O-])OC[N+]1(CCCCOc2ccc3ccc(=O)[nH]c3c2)CCN(c2cccc3sccc23)CC1)C12CC3CC(CC(C3)C1)C2 | nM | 100
O=c1ccc2ccc(OCCCC[N+]3(COP(=O)([O-])OCCCCBr)CCN(c4cccc5sccc45)CC3)cc2[nH]1 | nM | 180
CCOCCOC(=O)OCOP(=O)([O-])OC[N+]1(CCCCOc2ccc3ccc(=O)[nH]c3c2)CCN(c2cccc3sccc23)CC1 | nM | 130
O=c1ccc2ccc(OCCCC[N+]3(COP(=O)([O-])OCCOCC4CC4)CCN(c4cccc5sccc45)CC3)cc2[nH]1 | nM | -40
